The origin of these recorded values is the supplement of paper PMC10567573.

B1: TOR1AIP2 (parent)
chain: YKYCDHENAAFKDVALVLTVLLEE

# Variants of: B1
# TEST_METHOD_NOTES: protein stability index of a GFP-peptide fusion (GPS, HEK-293T) (PSI 1-6); higher = more stable;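 note: lentivirally expressed fusions sorted by FACS into six bins by GFP to DsRed ratio, PSI derived from sequencing read proportions per bin multiplied by bin number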
# STATED_CONDITIONS: c terminus: a fixed tail appended
Recorded protein stability index by entry

| SEQUENCE_VARIANT | protein stability index |
| --- | --- |
| L18N | 3.26 |
| E24R | 3.2 |
| L22Y | 3.23 |
| K2Y | 2.95 |
| A9C | 4.55 |
| V17P | 3.33 |
| A15R | 2.8 |
| V20M | 4.6 |
| T19N | 2.25 |
| E7Q | 2.52 |
| Y1K | 2.68 |
| A9E | 1.75 |
| Y3V | 1.83 |
| T19P | 1.74 |
| N8E | 1.56 |
| H6G | 2.26 |
| A15Q | 2.58 |
| N8S | 2.9 |
| E23A | 3.33 |
| L16C | 1.47 |
| V14P | 1.88 |
| E7L | 2.71 |
